System: UACC-257 melanoma
test-details: NCI-60 one-dose screen, 48 h
setup-conditions: 10 µM
About 83,000 compounds went through this panel and 20% of them were active in at least one assay; those are over-represented in the sample as a whole. Active and inactive are the calls of the source. How the source made its calls: active means growth percent below 10; inactive means the rest.
Choose the fitting class; nothing outside active, inactive is accepted.

Solved entries:
compound: Clc1ccccc1N=Cc1ccc2c(c1)OCO2
study-system: UACC-257 melanoma
assigned-category: inactive

compound: COc1cccc(-c2cc(-c3cccc(NS(C)(=O)=O)c3)nc(N)c2C#N)c1O
study-system: UACC-257 melanoma
assigned-category: inactive

compound: COc1ccc(-c2nn(-c3cccc(NC(=O)Nc4ccc(Cl)c(C(F)(F)F)c4)c3)cc2-c2ccncc2)cc1Cl
study-system: UACC-257 melanoma
assigned-category: active

compound: c1ccc(CO[C@H]2CO[C@H]3[C@@H]2OC[C@H]3OCc2ccccc2)cc1
study-system: UACC-257 melanoma
assigned-category: inactive

compound: CCOC(=O)C(=Cc1ccc(Br)cc1)C(=O)OCC
study-system: UACC-257 melanoma
assigned-category: active

# outcome recorded in this test, key = CC[C@H](C)C(=O)O[C@H]1CCC=C2C=C[C@H](C)C(CCC3C[C@@H](O)CC(=O)O3)[C@H]21 (some centres undefined) inactive

Could you please tell me the result logged for CCCCCCNC(=O)Oc1ccc(/C(=C(/CC)Cc2ccccc2)c2ccc(OCCN3CCCCC3)cc2)cc1 in this assay? inactive

What call does the record list for COC(=O)[C@@H]1[C@H](O)[C@H](C)[C@H](O)[C@@](C)(O)/C=C\C=C(C)C(=O)Nc2c(C)c(OC(C)=O)c3c(c2O)C(=O)C(C)=C2OCOC(=C23)C(C)=C[C@@](C)(O)[C@H](O)[C@@H](C)[C@H]1OC(C)=O ? inactive

What did the test return for CCCCCCCCCCCCC1C/C=C\CCCC(=O)O1 (centres undefined) ? inactive

Recorded call for CC(=O)N(C)c1ccc(Nc2ccc(Nc3ccc(N(C)C(C)=O)cc3)c3c2C(=O)c2ccccc2C3=O)cc1 ? inactive

Each compound tested received a call. Report the one for Nc1c(C(=O)Nc2cccc(Br)c2)sc2nc3c(cc12)C(O)CCC3 (centres undefined) . inactive

GET /call?item= Cc1cc(C)c2c(n1)sc1c(Nc3ccc(Cl)cc3)ncnc12 returns the recorded outcome of this test. inactive

* * *

Tested on: EKVX NSCLC
test-details: NCI-60 one-dose screen, 48 h (100 = growth as untreated, 0 = no growth, -100 = all killed)
setup-conditions: 10 µM
The panel holds about 83,000 compounds, 20% with a hit somewhere; the sample as a whole holds those more often.
recorded-metric: growth (%)
State the answer as a number, implicitly in %.

Before answering, review these 3 worked examples.
molecule: CN(C)CCN1C(=O)c2cccc3c(-c4ccc5ncn(C6CCCCC6)c5c4)ccc(c23)C1=O
growth / %: 29.8
//
molecule: COc1ccc(CN2CCC(N3CCCC3=O)c3cc(Cl)ccc32)cc1 (stereo unspecified)
growth / %: 106
//
molecule: COc1ccc(NC2=NC(C)(CO)CS2)cc1 (stereo unspecified)
growth / %: 106

Which value of growth has been reported for COC(=O)c1c(-c2ccccc2)csc1NC(=O)c1c(-c2ccccc2)noc1C in the records? 58.7

Field request: growth | item: O=C1OCC2=C1C(c1cccc(Br)c1)c1cc3c(cc1N2CCO)CCC3 (stereo unspecified) 47.7

Sample Nc1ccn(C2CC(O)C(CO)O2)c(=O)n1 (stereo unspecified) — what was its growth? 102

* * *

System: DU-145 prostate
test-details: NCI-60 one-dose screen, 48 h (100 = growth as untreated, 0 = no growth, -100 = all killed)
setup-conditions: 10 µM
Protocol: Cells are grown in 96 well plates and exposed to the test compound for 48 hours. Compounds are tested at a single concentration, which is 10^-5 M for most compounds. The reported endpoint is percent growth (GI% or GIPRCNT), where numbers from 0 - 100% represent growth inhibition, and numbers from -100% - 0 represent cell death. For example, a value of 40 represents 60% growth inhibition. A value of 0 means no net growth occurred over the course of the experiment. […]
Compounds without any hit were thinned out: in the full panel of roughly 83,000, 20% have a hit.
growth reference
Answer format: numeric, % implied, no suffix.

compound: COc1ccc(-c2nn(-c3cccc(NC(=O)c4cc(C(F)(F)F)cc(C(F)(F)F)c4)c3)cc2-c2ccncc2)cc1Cl
readout-value: 83.7

Fill blank: measured growth of the compound Cc1ccc(N=Nc2c(N)nc(N)[nH]c2=O)cc1C is ____. 117

Value lookup for growth; key = COc1ccc(C(=O)/C=C/c2cc(-c3cc(OC)c(OC)c(OC)c3)n[nH]2)cc1 26.3

Which growth reading was recorded for the compound CC(C)(C)c1ccc(N2CSC(=S)N(c3ccc(C(C)(C)C)cc3)C2)cc1 ? 123

Quick one: growth for O=C(Nc1cccc(-n2cc(-c3ccncc3)c(-c3cc(O)cc(Cl)c3)n2)c1)c1cc(C(F)(F)F)cc(C(F)(F)F)c1 ? 62.1

For COc1cc(-c2cc(/C=C/C(=O)c3ccc(F)c(F)c3)[nH]n2)cc(OC)c1OC , what is its reported growth? 72.9

Looking for the measured growth of CCCCCCCC(C)NCCO (configuration not stated) , can you help? 106

Which growth value belongs to COc1cc(C(=O)/C=C/c2cc(-c3cc(OC)c(OC)c(OC)c3)n[nH]2)cc(OC)c1OC ? 4.4

* * *

growth values by entry
System: OVCAR-4 ovarian
test-details: NCI-60 one-dose screen, 48 h (100 = growth as untreated, 0 = no growth, -100 = all killed)
setup-conditions: 10 µM
About 83,000 compounds went through this panel and 20% of them were active in at least one assay; those are over-represented in the sample as a whole.
Write the answer as a number in %, unit excluded.

compound: CN(C)c1ccc(Cc2ccc(N(C)C)cc2Cl)c(Cl)c1
growth / %: 78.6
//
compound: CN(C)c1ccc(/C=C/C=N/NC(=O)c2cc(O)c(O)c(O)c2)cc1
growth / %: 67.8
//
compound: CN(C)CCOc1nc2ccccc2c2c1-c1ccc(Cl)cc1C2=O
growth / %: -6.28
//
compound: Cc1cc(Cc2cc(C)c(O)c(C)c2)cc(C)c1O
growth / %: 77.1
//
compound: N#CCCN1C/C(=C/c2ccc(Br)cc2)C(=O)/C(=C/c2ccc(Br)cc2)C1
growth / %: 0.905
//
compound: Cc1cc(=O)n2nnc3c4ccccc4ccc3n12
growth / %: 49.3
//
compound: O=C1C(=O)c2ccccc2C(O)=C1CCCc1ccc(C2CCCCCC2)cc1
growth / %: 20.9
//
compound: Cc1ccc(CC#N)cc1C
growth / %: 109

What value of measured growth is listed for O=C(Nc1cccc(Br)c1)c1cc(=O)[nH]c2ccccc12 ? 97.6

Would you kindly share the measured growth for CN1c2ccccc2[C@]2(Cc3ccccc3)Cc3ccccc3N[C@H]12 ? 91

* * *

Test system: SR leukemia
test-details: NCI-60 one-dose screen, 48 h (100 = growth as untreated, 0 = no growth, -100 = all killed)
setup-conditions: 10 µM
Procedure: Growth inhibition of the SR human tumor cell line is measured as a screen for anti-cancer activity. Cells are grown in 96 well plates and exposed to the test compound for 48 hours. Compounds are tested at a single concentration, which is 10^-5 M for most compounds. The reported endpoint is percent growth (GI% or GIPRCNT), where numbers from 0 - 100% represent growth inhibition, and numbers from -100% - 0 represent cell death. For example, a value of 40 represents 60% growth inhibition. […]
The panel holds about 83,000 compounds, 20% with a hit somewhere; the sample as a whole holds those more often.
Here, each record is paired with measured growth data.
Response body: numeric value in %, unit text excluded.

Take a look at these entries with their results.
compound: O=C(N/N=C/c1ccccc1)C(Oc1ccccc1)c1ccccc1 (stereo not given)
study-system: SR leukemia
unit-of-measure: %
readout-value: 91.8
//
compound: Nc1cc2c(cc1Cl)-c1ccc([N+](=O)[O-])cc1/C2=N\O
study-system: SR leukemia
unit-of-measure: %
readout-value: 10.8
//
compound: Cc1ccc(S(=O)(=O)OCCN(CCOS(=O)(=O)c2ccc(C)cc2)c2c[nH]c(=O)[nH]c2=O)cc1
study-system: SR leukemia
unit-of-measure: %
readout-value: 104

What growth value was documented for this compound, CCN(CCCCCCN1CC(=O)N(CCCCCCN(CC)Cc2ccccc2OC)CC1=O)Cc1ccccc1OC ? 39.3

Name the reported growth value associated with the compound N#CCCN1C/C(=C/c2ccc(Br)cc2)C(=O)/C(=C/c2ccc(Br)cc2)C1 -17.3

* * *

Test system: NCI-H460 lung
test-details: NCI-60 one-dose screen, 48 h
setup-conditions: 10 µM
This is part of a sample that, as a whole, favours compounds with a hit. Of some 83,000 tested, about 20% had one in any assay. The source made the active and inactive calls. Rule for the calls: active = growth percent below 10; inactive = the rest.
The reply should be one of these categories: active, inactive

Worked set:
compound: Cc1ccc(NC(=O)NC2CCCCC2)cc1
assigned-category: inactive

compound: CCOC(=O)N1C=CC2C=CC1C1C=CC=CC2N1C(=O)OCC (centres undefined)
assigned-category: inactive

Could you check what this test reported for COc1cc(-c2cc(/C=C/C(=O)c3ccc(N)cc3)[nH]n2)cc(OC)c1OC ? active

Check the results log: what was the call for CCCCCCN1C(=O)C2=C(c3ccc(Cl)cc3)Nc3c(c(C)nn3-c3ccccc3)C2c2ccccc21 (centres undefined) ? inactive

Lab log entry: CC(=O)c1nc2ccccc2n1CCN1CCN(C)CC1 — outcome as called in the assay? inactive

Can you look up the reported call for COc1ccc(-c2nn(-c3cccc(NC(=O)Nc4cc(C(F)(F)F)cc(C(F)(F)F)c4)c3)cc2-c2ccncc2)cc1Cl for me? active

Lab log entry: CCOC(=O)C(CSC(c1ccccc1)(c1ccccc1)c1ccccc1)NC(=O)C(CSC(c1ccccc1)(c1ccccc1)c1ccccc1)NC(c1ccccc1)(c1ccccc1)c1ccccc1 (centres undefined) — outcome as called in the assay? inactive

For O=C1/C(=C\c2ccc(Cl)cc2)CN(C(=S)Nc2ccccc2)C/C1=C\c1ccc(Cl)cc1 , which call appears in the assay record? active

// param item: COc1ccc2c(c1)N(CCO)C1=C(C(=O)OC1)C2c1cc(OC)c(OC)c(OC)c1 (centres undefined) ; yields the recorded call active
